# target.system: equine serum butyrylcholinesterase (esBChE) (Equus caballus)
# Construct: purchased Sigma; host or cells: equine serum
# Sequence (P81908 whole entry): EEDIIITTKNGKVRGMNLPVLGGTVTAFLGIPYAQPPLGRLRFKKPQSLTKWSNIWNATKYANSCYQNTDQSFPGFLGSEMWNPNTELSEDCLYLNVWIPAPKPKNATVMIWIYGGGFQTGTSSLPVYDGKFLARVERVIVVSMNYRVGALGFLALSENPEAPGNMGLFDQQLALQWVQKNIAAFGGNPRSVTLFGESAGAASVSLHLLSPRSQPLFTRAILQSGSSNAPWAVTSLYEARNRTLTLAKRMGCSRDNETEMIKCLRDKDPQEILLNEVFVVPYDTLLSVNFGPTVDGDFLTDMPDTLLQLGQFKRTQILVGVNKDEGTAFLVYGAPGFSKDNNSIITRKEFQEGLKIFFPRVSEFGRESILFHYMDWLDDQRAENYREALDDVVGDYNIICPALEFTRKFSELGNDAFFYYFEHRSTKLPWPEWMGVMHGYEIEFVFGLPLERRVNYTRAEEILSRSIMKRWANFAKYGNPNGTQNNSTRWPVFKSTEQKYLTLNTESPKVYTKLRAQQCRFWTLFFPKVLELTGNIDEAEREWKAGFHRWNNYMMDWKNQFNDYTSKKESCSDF
# assay.notes: Inhibition of esBChE (Ellman's test)
# Assay type: biochemical
# run.parameters: read-out: esBChE % inhibn. @ 10 μΜ
We use 20% as the dividing line for inhibition at 10 µM: on or above the line is Y, below is N.

QUERY: Please indicate if the recorded inhibition at 10 µM for Cc1cc(=O)oc2ccc(OCc3cc(Cn4cnc5c(N6CCOCC6)ncnc54)no3)cc12 [13b] meets or exceeds 20%.
RESULT: N

QUERY: Has Cc1cc(=O)oc2ccc(OCC3CC(Cn4cnc5c(N6CCOCC6)ncnc54)=NO3)cc12 (stereo not drawn) a recorded inhibition at 10 µM greater than or equal to 20%?
RESULT: N

QUERY: Given Cc1cc(=O)oc2cc(OCC3=NOC(Cn4cnc5c(Cl)ncnc54)C3)ccc12 (stereo not drawn) [11e] , state whether its inhibition at 10 µM is at least 20%.
RESULT: N

QUERY: Decide: is the reported value of inhibition at 10 µM for Cc1cc(=O)oc2ccc(OCc3cc(Cn4cnc5c(N6CCCCC6)ncnc54)no3)cc12 [13a] equal to or greater than 20%?
RESULT: Y

QUERY: Decide: inhibition at 10 µM of O=c1cc(OCC2CC(Cn3cnc4c(N5CCCCC5)ncnc43)=NO2)c2ccccc2o1 (stereo not drawn) >= 20%?
RESULT: Y

QUERY: For this compound, is measured inhibition at 10 µM 20% or higher? Cc1cc(=O)oc2cc(OCC3=NOC(Cn4cnc5c(N6CCOCC6)ncnc54)C3)ccc12 (stereo not drawn) [11f]
RESULT: N

QUERY: Hi, just wondering whether Cc1cc(=O)oc2ccc(OCC3=NOC(Cn4cnc5c(Cl)ncnc54)C3)cc12 (stereo not drawn) [11b] shows inhibition at 10 µM of 20% or higher.
RESULT: N

QUERY: Is it the case that O=c1cc(OCc2cc(Cn3cnc4c(N5CCOCC5)ncnc43)no2)c2ccccc2o1 [13i] has inhibition at 10 µM reaching or exceeding 20%?
RESULT: N

QUERY: Does the compound Cc1cc(=O)oc2cc(OCCC3CC(Cn4cnc5c(N6CCOCC6)ncnc54)=NO3)ccc12 (stereo not drawn) have recorded inhibition at 10 µM that is 20% or more?
RESULT: N

# credit: paper PMC5748833
